Please provide measured inhibition at 1 µM for the entries that follow.
# SYSTEM TESTED: dopaminergic D2 receptor (Homo sapiens, UniProt P14416)
# Sequence (P14416 1-414 isoform P14416-2): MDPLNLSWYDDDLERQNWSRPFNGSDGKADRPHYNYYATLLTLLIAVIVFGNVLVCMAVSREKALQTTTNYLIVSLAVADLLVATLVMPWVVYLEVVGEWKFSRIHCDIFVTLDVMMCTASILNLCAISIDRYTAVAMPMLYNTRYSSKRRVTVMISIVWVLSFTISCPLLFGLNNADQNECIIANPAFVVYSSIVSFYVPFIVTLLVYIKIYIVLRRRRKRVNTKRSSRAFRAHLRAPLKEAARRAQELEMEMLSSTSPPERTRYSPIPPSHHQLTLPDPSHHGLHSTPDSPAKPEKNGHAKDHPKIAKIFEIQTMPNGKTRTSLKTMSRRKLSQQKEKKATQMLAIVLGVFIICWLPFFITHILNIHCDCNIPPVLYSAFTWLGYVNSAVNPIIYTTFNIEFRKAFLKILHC
# TEST: Binding assay D2S (h), [3H]methyl-spiperone, HEK-293 cells
# Parameters: expressed in transfected cells; host or cells: HEK-293 cells
# PROTOCOL CONDITIONS: read-out: D2 [%]
Give just the number in %; leave the unit off.

Form field inhibition at 1 µM for item O=S(=O)(NCCCCN1CCN(c2noc3ccccc23)CC1)c1ccc2c(c1)CCO2 [Compound 289] on dopaminergic D2 receptor (Homo sapiens, UniProt P14416): 99

Form field inhibition at 1 µM for item Cc1cccc(S(=O)(=O)NCCCN2CCN(c3nsc4ccccc34)CC2)c1 [Compound 7] on dopaminergic D2 receptor (Homo sapiens, UniProt P14416): 95

Form field inhibition at 1 µM for item O=S(=O)(NCCN1CCN(c2nsc3ccccc23)CC1)c1cccc2ccccc12 [Compound 9] on dopaminergic D2 receptor (Homo sapiens, UniProt P14416): 91

Form field inhibition at 1 µM for item O=S(=O)(NCCCCN1CCN(c2nsc3ccccc23)CC1)c1csc2ccccc12 [Compound 240] on dopaminergic D2 receptor (Homo sapiens, UniProt P14416): 101

Form field inhibition at 1 µM for item O=S(=O)(NCCCN1CCN(c2nsc3ccccc23)CC1)c1ccc(Br)cc1 [Compound 252] on dopaminergic D2 receptor (Homo sapiens, UniProt P14416): 97

Form field inhibition at 1 µM for item O=S(=O)(NCCCCN1CCN(c2cccc3c2OCCO3)CC1)c1ccc(F)c(Cl)c1 [Compound 392] on dopaminergic D2 receptor (Homo sapiens, UniProt P14416): 57

Form field inhibition at 1 µM for item Cc1cccc(S(=O)(=O)NCCCCN2CCN(c3nsc4ccccc34)CC2)c1 [Compound 3] on dopaminergic D2 receptor (Homo sapiens, UniProt P14416): 96

Form field inhibition at 1 µM for item O=S(=O)(NCCCCN1CCN(c2cccc3c2OCCO3)CC1)c1ccc2c(c1)OCO2 [Compound 404] on dopaminergic D2 receptor (Homo sapiens, UniProt P14416): 60

* * *

# SYSTEM TESTED: serotonine transporter (SERT) receptor (Homo sapiens)
# Construct: expressed in transfected cells; host or cells: CHO cells
# Sequence (P31645 whole entry): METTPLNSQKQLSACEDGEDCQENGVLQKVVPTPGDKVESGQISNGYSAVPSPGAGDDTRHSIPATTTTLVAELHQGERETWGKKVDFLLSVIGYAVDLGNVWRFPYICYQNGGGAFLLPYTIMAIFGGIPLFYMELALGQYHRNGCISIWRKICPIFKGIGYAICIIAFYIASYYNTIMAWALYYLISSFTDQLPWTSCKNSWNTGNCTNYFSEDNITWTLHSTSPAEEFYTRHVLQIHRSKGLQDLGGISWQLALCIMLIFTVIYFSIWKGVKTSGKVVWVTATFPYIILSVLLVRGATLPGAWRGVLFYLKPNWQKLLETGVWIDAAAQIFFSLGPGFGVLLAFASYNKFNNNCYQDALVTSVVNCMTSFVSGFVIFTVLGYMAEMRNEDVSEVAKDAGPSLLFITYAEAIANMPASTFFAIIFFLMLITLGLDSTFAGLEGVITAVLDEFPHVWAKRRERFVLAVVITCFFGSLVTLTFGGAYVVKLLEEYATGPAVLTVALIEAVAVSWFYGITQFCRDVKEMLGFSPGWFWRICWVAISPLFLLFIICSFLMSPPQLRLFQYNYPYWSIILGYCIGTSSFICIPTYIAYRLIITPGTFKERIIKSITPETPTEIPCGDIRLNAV
# TEST: Binding assay SERT (h), [3H]imipramine, CHO cells
# PROTOCOL CONDITIONS: read-out: SERT [%]
EXPERIMENTAL READOUT: inhibition at 1 µM (%)
Give just the number in %; leave the unit off.

Documented inhibition at 1 µM of Cc1c(S(=O)(=O)NCCCCN2CCN(c3noc4ccccc34)CC2)sc2ccc(F)cc12 [Compound 81] : 28

Documented inhibition at 1 µM of O=S(=O)(NCCCCN1CCC(c2noc3cc(F)ccc23)CC1)c1ccc(F)cc1 [Compound 294] : -14

Documented inhibition at 1 µM of O=S(=O)(NCCCCN1CCN(c2cccc3c2OCCO3)CC1)c1csc2ccccc12 [Compound 400] : 30

Documented inhibition at 1 µM of O=S(=O)(NCCCCN1CCC(c2noc3cc(F)ccc23)CC1)c1ccc(C(F)(F)F)cc1 [Compound 302] : 19

* * *

# SYSTEM TESTED: serotoninergic 5-HT7 receptor (Homo sapiens)
# Sequence (P34969 whole entry): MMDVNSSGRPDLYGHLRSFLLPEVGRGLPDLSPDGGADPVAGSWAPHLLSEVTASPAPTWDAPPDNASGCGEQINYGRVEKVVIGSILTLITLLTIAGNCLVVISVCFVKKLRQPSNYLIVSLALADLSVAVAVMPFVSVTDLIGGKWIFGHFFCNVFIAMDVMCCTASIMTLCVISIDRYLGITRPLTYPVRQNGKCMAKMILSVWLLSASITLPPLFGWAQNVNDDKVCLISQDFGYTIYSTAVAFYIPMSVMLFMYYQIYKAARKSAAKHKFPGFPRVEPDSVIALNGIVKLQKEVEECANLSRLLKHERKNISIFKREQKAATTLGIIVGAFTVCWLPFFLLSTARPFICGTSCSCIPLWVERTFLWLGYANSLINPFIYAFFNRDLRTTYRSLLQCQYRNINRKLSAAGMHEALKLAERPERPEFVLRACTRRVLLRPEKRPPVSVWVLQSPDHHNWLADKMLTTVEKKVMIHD
# TEST: Binding assay 5-HT7 (h), [3H]LSD, CHO cells
# Parameters: expressed in transfected cells; host or cells: CHO cells
# PROTOCOL CONDITIONS: read-out: 5-HT7
Please provide measured inhibition at 1 µM for the entries that follow.
Give just the number in %; leave the unit off.

Documented inhibition at 1 µM of O=S(=O)(NCCCCN1CCN(c2cccc3[nH]ccc23)CC1)c1ccc(F)c(F)c1 : 91

Documented inhibition at 1 µM of O=S(=O)(NCCCN1CCC(c2noc3cc(F)ccc23)CC1)c1csc2ccccc12 : 87

Documented inhibition at 1 µM of O=S(=O)(NCCCN1CCC(c2noc3cc(F)ccc23)CC1)c1cc2ccccc2s1 : 91

Documented inhibition at 1 µM of O=S(=O)(NCCCN1CCC(c2noc3cc(F)ccc23)CC1)c1cccc(C(F)(F)F)c1 : 88

Documented inhibition at 1 µM of O=S(=O)(NCCCCN1CCC(c2noc3cc(F)ccc23)CC1)c1ccc(F)c(Cl)c1 : 75

Documented inhibition at 1 µM of O=S(=O)(NCCCCN1CCN(c2noc3ccccc23)CC1)c1ccc(F)c(Cl)c1 : 87

Documented inhibition at 1 µM of O=S(=O)(NCCCCN1CCN(c2noc3ccccc23)CC1)c1cccc(F)c1 : 90

Documented inhibition at 1 µM of N#Cc1cccc(S(=O)(=O)NCCCCN2CCN(c3cccc4[nH]ccc34)CC2)c1 : 88

* * *

# SYSTEM TESTED: adrenergic α2C receptor (Homo sapiens)
# Sequence (P18825 1-462): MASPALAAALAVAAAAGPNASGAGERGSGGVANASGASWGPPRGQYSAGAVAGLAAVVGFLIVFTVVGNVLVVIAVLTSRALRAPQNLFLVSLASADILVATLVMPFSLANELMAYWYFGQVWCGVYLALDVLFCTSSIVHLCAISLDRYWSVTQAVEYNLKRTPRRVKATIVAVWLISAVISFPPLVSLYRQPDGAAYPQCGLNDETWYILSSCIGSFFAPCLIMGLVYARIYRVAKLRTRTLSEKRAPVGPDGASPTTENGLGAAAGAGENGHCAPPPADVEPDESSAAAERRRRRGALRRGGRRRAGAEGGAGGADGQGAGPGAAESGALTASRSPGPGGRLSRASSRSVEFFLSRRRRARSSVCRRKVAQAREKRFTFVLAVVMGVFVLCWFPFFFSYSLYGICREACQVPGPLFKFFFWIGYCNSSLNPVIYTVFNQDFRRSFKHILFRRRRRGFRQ
# TEST: Binding assay α2C (h), [3H]RX 821002, CHO cells
# Parameters: expressed in transfected cells; host or cells: CHO cells
# PROTOCOL CONDITIONS: read-out: α2C [%]
EXPERIMENTAL READOUT: inhibition at 1 µM (%)
Give just the number in %; leave the unit off.

Documented inhibition at 1 µM of O=S(=O)(NCCCCN1CCN(c2cccc3[nH]ccc23)CC1)c1ccc2ccccc2c1 [Compound 26] : 100

Documented inhibition at 1 µM of Cc1cccc(S(=O)(=O)NCCN2CCN(c3nsc4ccccc34)CC2)c1 [Compound 11] : 94

Documented inhibition at 1 µM of O=S(=O)(NCCCCN1CCC(c2noc3cc(F)ccc23)CC1)c1ccc2ccccc2c1 [Compound 18] : 100

Documented inhibition at 1 µM of O=S(=O)(NCCCCN1CCN(c2nsc3ccccc23)CC1)c1ccc2cc(Cl)ccc2c1 [Compound 61] : 101

Documented inhibition at 1 µM of O=S(=O)(NCCCCN1CCN(c2noc3ccccc23)CC1)c1c[nH]c2ncccc12 [Compound 89] : 98

Documented inhibition at 1 µM of O=S(=O)(NCCCCN1CCC(c2noc3cc(F)ccc23)CC1)c1cc2ccccc2s1 [Compound 312] : 92

Documented inhibition at 1 µM of O=c1[nH]c2ccc(S(=O)(=O)NCCCCN3CCN(c4nsc5ccccc45)CC3)cc2o1 [Compound 4] : 96

Documented inhibition at 1 µM of O=S(=O)(NCCCN1CCC(c2noc3cc(F)ccc23)CC1)c1cc2ccc(Cl)cc2s1 [Compound 347] : 110

Documented inhibition at 1 µM of O=S(=O)(NCCCCN1CCN(c2nsc3ccccc23)CC1)c1ccc(F)c(Cl)c1 [Compound 63] : 98

Documented inhibition at 1 µM of O=S(=O)(NCCCN1CCN(c2nsc3ccccc23)CC1)c1ccc(Cl)s1 [Compound 196] : 95

Documented inhibition at 1 µM of Cc1c(S(=O)(=O)NCCCCN2CCN(c3nsc4ccccc34)CC2)sc2ccc(F)cc12 [Compound 65] : 104

Documented inhibition at 1 µM of O=S(=O)(NCCCCN1CCC(c2noc3cc(F)ccc23)CC1)c1cccc2ccccc12 [Compound 17] : 100

Documented inhibition at 1 µM of N#Cc1cccc(S(=O)(=O)NCCCN2CCC(c3noc4cc(F)ccc34)CC2)c1 [Compound 338] : 104

Documented inhibition at 1 µM of Cc1c(S(=O)(=O)NCCCCN2CCC(c3noc4cc(F)ccc34)CC2)sc2ccc(Cl)cc12 [Compound 315] : 93

Documented inhibition at 1 µM of COc1cccc(S(=O)(=O)NCCCCN2CCC(c3noc4cc(F)ccc34)CC2)c1 [Compound 300] : 94

Documented inhibition at 1 µM of O=S(=O)(NCCCN1CCN(c2nsc3ccccc23)CC1)c1ccc(Cl)c(Cl)c1 [Compound 251] : 96

Documented inhibition at 1 µM of O=S(=O)(NCCCN1CCN(c2nsc3ccccc23)CC1)c1ccc2cn[nH]c2c1 [Compound 268] : 99

Documented inhibition at 1 µM of O=S(=O)(NCCCN1CCN(c2nsc3ccccc23)CC1)c1ccc2c(c1)OCO2 [Compound 269] : 101

Documented inhibition at 1 µM of O=S(=O)(NCCCCN1CCN(c2cccc3[nH]ccc23)CC1)c1ccc2cc(Cl)ccc2c1 [Compound 358] : 101

Documented inhibition at 1 µM of O=S(=O)(NCCCCN1CCN(c2nsc3ccccc23)CC1)c1ccc2ccccc2c1 [Compound 2] : 101

Documented inhibition at 1 µM of O=S(=O)(NCCCCN1CCC(c2noc3cc(F)ccc23)CC1)c1cc2ccccc2o1 [Compound 316] : 94

Documented inhibition at 1 µM of O=c1[nH]c2cccc(N3CCN(CCCNS(=O)(=O)c4ccc5ccccc5c4)CC3)c2[nH]1 [Compound 424] : 67

Documented inhibition at 1 µM of O=c1[nH]c2cccc(N3CCN(CCCCNS(=O)(=O)c4ccc5ccccc5c4)CC3)c2[nH]1 [Compound 419] : 93

Documented inhibition at 1 µM of O=S(=O)(NCCCCN1CCC(c2noc3cc(F)ccc23)CC1)c1ccc2c(c1)OCCO2 [Compound 321] : 100

Documented inhibition at 1 µM of O=S(=O)(NCCCN1CCN(c2nsc3ccccc23)CC1)c1cccs1 [Compound 261] : 92

Documented inhibition at 1 µM of Cc1[nH]c2ccc(Cl)cc2c1C1=CCN(CCCNS(=O)(=O)c2cccc(O)c2)CC1 [Compound 445] : 69

Documented inhibition at 1 µM of O=S(=O)(NCCCCN1CCC(c2noc3cc(F)ccc23)CC1)c1cccs1 [Compound 325] : 93

Documented inhibition at 1 µM of O=S(=O)(NCCCN1CCN(c2nsc3ccccc23)CC1)c1cccc(C(F)(F)F)c1 [Compound 258] : 98

Documented inhibition at 1 µM of Cc1c(S(=O)(=O)NCCCCN2CCC(c3noc4cc(F)ccc34)CC2)sc2ccc(F)cc12 [Compound 101] : 106

Documented inhibition at 1 µM of O=S(=O)(NCCCN1CCN(c2nsc3ccccc23)CC1)c1ccc(-c2ccccc2)cc1 [Compound 260] : 99

Documented inhibition at 1 µM of Cc1c(S(=O)(=O)NCCCN2CCC(c3noc4cc(F)ccc34)CC2)sc2ccc(F)cc12 [Compound 102] : 101

Documented inhibition at 1 µM of O=S(=O)(NCCCN1CCC(c2noc3cc(F)ccc23)CC1)c1cnc2ccccn12 [Compound 356] : 96

Documented inhibition at 1 µM of O=S(=O)(NCCN1CC=C(c2c[nH]c3ccc(F)cc23)CC1)c1cccc(F)c1 [Compound 439] : 68
